FYI, the data here is from ChEMBL document CHEMBL5331095.

Target: Proprotein convertase subtilisin/kexin type 9 (Homo sapiens) (UniProt Q8NBP7)
Sequence (Q8NBP7 31-152 limits assumed): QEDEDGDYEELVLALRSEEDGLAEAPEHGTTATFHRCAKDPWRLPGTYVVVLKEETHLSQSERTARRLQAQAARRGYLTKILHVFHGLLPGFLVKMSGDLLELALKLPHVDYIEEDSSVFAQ
Sequence (Q8NBP7 153-692 limits assumed): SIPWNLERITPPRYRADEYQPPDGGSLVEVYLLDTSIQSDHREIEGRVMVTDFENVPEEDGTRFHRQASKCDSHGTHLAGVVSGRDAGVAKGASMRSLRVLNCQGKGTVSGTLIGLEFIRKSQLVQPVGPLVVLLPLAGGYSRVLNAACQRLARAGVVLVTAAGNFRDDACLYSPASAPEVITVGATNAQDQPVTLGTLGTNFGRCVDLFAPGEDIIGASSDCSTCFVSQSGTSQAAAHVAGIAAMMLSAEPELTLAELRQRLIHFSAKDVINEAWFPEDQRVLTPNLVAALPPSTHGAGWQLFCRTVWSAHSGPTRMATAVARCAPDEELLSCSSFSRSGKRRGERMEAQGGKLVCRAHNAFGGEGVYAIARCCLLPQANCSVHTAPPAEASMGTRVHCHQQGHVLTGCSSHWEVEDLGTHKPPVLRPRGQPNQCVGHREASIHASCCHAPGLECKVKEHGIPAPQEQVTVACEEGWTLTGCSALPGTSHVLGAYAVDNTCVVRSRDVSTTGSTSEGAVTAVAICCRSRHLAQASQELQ
Assay: Inhibition of PCSK9 transcriptional activity in human HepG2 cells stably expressing luciferase reporter plasmid containing PCSK9 promoter assessed as decrease in luciferase activity at 10 ug/ml incubated for 24 hrs by Luciferase assay relative to control
Format: cell-based
Settings: dose 10.0 µg/ml
reported.endpoint: inhibition (%)

Record excerpt, results attached:
Entry COc1cccc(Cn2c(NCCO)nc3c2c(=O)n(C)c(=O)n3C)c1 ; inhibition = 89.8

Entry Cc1ccccc1Cn1c(NCCO)nc2c1c(=O)n(C)c(=O)n2C ; inhibition = 88.1

Entry Cn1c(=O)c2c(nc(NCCO)n2Cc2ccc(F)cc2)n(C)c1=O ; inhibition = 93.1

Entry Cn1c(=O)c2c(nc(NCCO)n2Cc2ccc(F)c(C(F)(F)F)c2)n(C)c1=O ; inhibition = 87

(a) COc1cccc(Cn2c(N3CCC(N4CCCC4)CC3)nc3c2c(=O)n(C)c(=O)n3C)c1
(b) COc1cccc(Cn2c(NCC(N)=O)nc3c2c(=O)n(C)c(=O)n3C)c1
Form: Entry with minimum inhibition (choose one): a / b Identify your selection by its label.
a
